Reference source for all entries: PubChem BioAssay (NCATS)

system: KB-3-1; test: Cytotoxic Profiling of Annotated Libraries Using Quantitative High-Throughput Screening (AID 1296008); conditions: Five cell lines viability, CellTiter-Glo ATP luminescence, 48-72 h; further: nearly all actives have a fitted effect of over 60% in size
Inconclusive results are not listed. The source made the active and inactive calls. The call rests on the fitted dose curve; in most records, active means well fitted inhibition curve with a large enough effect; inconclusive means small, poorly fitted or top-dose-only effect; inactive means flat fitted curve, though single readings scatter.
Return exactly one item of Y = active, N = inactive

- C=CC(=O)Nc1cc2c(Nc3ccc(F)c(Cl)c3)ncnc2cc1OCCCN1CCOCC1: N
- COc1ccc(C=Cc2cc(OC)c(OC)c(OC)c2)cc1O: Y
- O=C(C=Cc1cccc(S(=O)(=O)Nc2ccccc2)c1)NO: Y
- CC(NCc1ccc2c(c1)nc(NC(=O)c1ccc(-c3cn[nH]c3)s1)n2CC(C)(C)O)C(C)(C)C (centres undefined): Y
- Cc1[nH]nc2ccc(-c3cncc(OC[C@@H](N)Cc4ccccc4)c3)cc12: Y

As a next step, examine the compound that follows.
Lookup: State the result this test recorded for N#Cc1c(O)c2c(-c3ccc(-c4ccccc4O)cc3)csc2[nH]c1=O .
Found: N

---

tested on: CP203; test: qHTS profiling for inhibitors of Plasmodium falciparum proliferation (AID 504749); further: nearly all actives have a fitted effect of over 60% in size; details: P. falciparum in erythrocytes, SYBR Green DNA, 72 h; series mostly up to 28.7 µM
Results filed as inconclusive are left out. Active and inactive are the calls of the source. The call rests on the fitted dose curve; in most records, active means well fitted inhibition curve with a large enough effect; inconclusive means small, poorly fitted or top-dose-only effect; inactive means flat fitted curve, though single readings scatter.
Mark one answer only. Choices: active, inactive

* CC[C@H]1CN2CCc3cc(OC)c(OC)cc3[C@H]2C[C@@H]1C[C@@H]1NCCc2cc(OC)c(OC)cc21 | active

Lookup: Recorded test call requested for Nc1ccn([C@@H]2O[C@H](CO)[C@H](O)C2(F)F)c(=O)n1
Found: active

Lookup: Which outcome was entered for the compound CN1c2cc(O)c(N=NC(N)=O)cc2CC1S(=O)(=O)O (stereo not given) in this test?
Found: inactive

Lookup: For this compound, state the assay outcome: COc1c(N2C[C@@H]3CCCN[C@H]3C2)c(F)cc2c(=O)c(C(=O)O)cn(C3CC3)c12
Found: inactive

Lookup: Write down the call the test reported for this compound. Item: C[C@H]1C[C@@H]2[C@@H]([C@@H](O)C[C@@]3(C)[C@H]2CC[C@]3(O)C(=O)CO)[C@@]2(C)C=CC(=O)C=C12
Found: inactive

---

test: qHTS of pediatric cancer cell lines to identify multiple opportunities for drug repurposing: Primary screen for LAN-5 cells (AID 1347100); conditions: LAN-5 neuroblastoma viability, CellTiter-Glo luminescence, 48 h; series mostly up to 46 µM
Results filed as inconclusive are left out. Active and inactive are the calls of the source. Calls come from the whole dose curve; as a rule, active = well fitted cell-killing curve with a large enough effect; inconclusive = small, poorly fitted or top-dose-only effect; inactive = no such curve, though single readings can be large or run the other way.
Assign a class; possible classes are true (1) = active, false (0) = inactive

Please review the entries below; each comes with its answer.
* CC(C)c1ccccc1Cc1cc(C(=O)Nc2ccc(S(=O)(=O)c3ccccc3C(C)(C)C)cc2)c(O)c(O)c1O | true (1)
* CN1CCN(c2ccc3nc(-c4c(N)c5c(F)cccc5[nH]c4=O)[nH]c3c2)CC1 | true (1)
* COc1ccc(CC2SC(=O)NC2=O)cc1C(=O)NCc1ccc(C(F)(F)F)cc1 (centres undefined) | false (0)

Here's the next entry for you.
Lookup: Recorded test outcome, item CN1CCN(c2cc(C(=O)Nc3ccc4c(c3)-c3c(c(C(N)=O)nn3-c3ccc(F)cc3)CC4)c(Cl)cn2)CC1
Found: true (1)

---

Z-AUC by entry:
experiment: qHTS drug screen for cell cycle checkpoint inhibitors in PARPi-resistant BRCA-mutant ovarian cancer cell lines. (AID 1963452); details: PEO1/OlaR viability, CellTiter-Glo luminescence, 96 h; measured here: PEO4 Z-AUC; stronger effect = lower value
Reply with the value as a number alone.

- COc1ccc2c(c1)CC[C@@H](CN(C)CC(=O)O)[C@H]2c1ccccc1: 1.29

# evaluate next
Lookup: I'd like to know its Z-AUC. The compound in question is Nc1ncnc2c1c(-c1cnc3[nH]ccc3c1)nn2C1CCCC1
Found: -1.31
